Taken from the supplement of paper PMC9112550.

- System: Escherichia coli TOP10
- Assay Remarks: shrunken log2 fold change of peptide-encoding DNA abundance (4.5 h post-induction vs induction); higher = less antimicrobial activity (less host growth inhibition)
- Measurement Parameters: time post-induction: 4.5 h; library: site-saturation at positions 5, 18, 19, 20
As shown below, each of these sequences has a reported shrunken log2 fold change value.
Please give the numeric answer without any surrounding text.

Completed entries (count: 5):
| Macromolecule Sequence | Endpoint Value |
| --- | --- |
| RRIRLRPPRLPRPRPRPGDNPRP | 0.0735 |
| RRIRNRPPRLPRPRPRPIKKPRP | 0.149 |
| RRIRTRPPRLPRPRPRPKTQPRP | 0.19 |
| RRIRGRPPRLPRPRPRPTNMPRP | 0.316 |
| RRIRERPPRLPRPRPRPRNEPRP | -0.473 |

Query :: Supply reported shrunken log2 fold change belonging to this sequence: RRIRRRPPRLPRPRPRPPHCPRP
Result :: 1.08

Query :: Supply reported shrunken log2 fold change belonging to this sequence: RRIRVRPPRLPRPRPRPFFEPRP
Result :: 0.142

====

- Test system: Escherichia coli TOP10
- Assay Remarks: shrunken log2 fold change of peptide-encoding DNA abundance (4.5 h post-induction vs induction); higher = less antimicrobial activity (less host growth inhibition)
- Measurement Parameters: time post-induction: 4.5 h; library: site-saturation at positions 5, 18, 19, 20
As shown below, each of these sequences has a reported shrunken log2 fold change value.
Please give the numeric answer without any surrounding text.

Completed entries (count: 3):
| Macromolecule Sequence | shrunken log2 fold change |
| --- | --- |
| RRIRKRPPRLPRPRPRPPHAPRP | 0.728 |
| RRIRGRPPRLPRPRPRPSRSPRP | 0.253 |
| RRIRPRPPRLPRPRPRPVMHPRP | 0.15 |

Query :: Supply reported shrunken log2 fold change belonging to this sequence: RRIRDRPPRLPRPRPRPCMCPRP
Result :: -0.0426

Query :: Supply reported shrunken log2 fold change belonging to this sequence: RRIRYRPPRLPRPRPRPFHSPRP
Result :: -0.0599

Query :: Supply reported shrunken log2 fold change belonging to this sequence: RRIRERPPRLPRPRPRPTRCPRP
Result :: -0.0341

Query :: Supply reported shrunken log2 fold change belonging to this sequence: RRIRLRPPRLPRPRPRPVTQPRP
Result :: -0.323

Query :: Supply reported shrunken log2 fold change belonging to this sequence: RRIRGRPPRLPRPRPRPKASPRP
Result :: 0.234

Query :: Supply reported shrunken log2 fold change belonging to this sequence: RRIRHRPPRLPRPRPRPSPDPRP
Result :: -0.293

Query :: Supply reported shrunken log2 fold change belonging to this sequence: RRIRARPPRLPRPRPRPEHVPRP
Result :: 0.269

Query :: Supply reported shrunken log2 fold change belonging to this sequence: RRIRSRPPRLPRPRPRPFDKPRP
Result :: -0.232

====

- Test system: Escherichia coli TOP10
- Assay Remarks: shrunken log2 fold change of peptide-encoding DNA abundance (4.5 h post-induction vs induction); higher = less antimicrobial activity (less host growth inhibition)
- Measurement Parameters: time post-induction: 4.5 h; library: site-saturation at positions 5, 18, 19, 20
Binary classification by shrunken log2 fold change, with -0.02 as an inclusive lower bound for Satisfied; all other cases are Not satisfied.

| Macromolecule Sequence | Label |
| --- | --- |
| RRIRERPPRLPRPRPRPSTPPRP | Not satisfied |
| RRIRQRPPRLPRPRPRPNLVPRP | Satisfied |
| RRIRFRPPRLPRPRPRPRYIPRP | Not satisfied |
| RRIRFRPPRLPRPRPRPKCGPRP | Satisfied |
| RRIRSRPPRLPRPRPRPAQLPRP | Not satisfied |
| RRIRIRPPRLPRPRPRPAVIPRP | Satisfied |
| RRIRPRPPRLPRPRPRPWINPRP | Not satisfied |
| RRIRPRPPRLPRPRPRPIVTPRP | Not satisfied |

Consider the record given below.
Query :: Check this sequence for shrunken log2 fold change at or above -0.02: RRIRSRPPRLPRPRPRPSAWPRP
Result :: Satisfied

====

As shown below, each of these sequences has a reported shrunken log2 fold change value.
- Tested on: Escherichia coli TOP10
- Assay Remarks: shrunken log2 fold change of peptide-encoding DNA abundance (4.5 h post-induction vs induction); higher = less antimicrobial activity (less host growth inhibition)
- Measurement Parameters: time post-induction: 4.5 h; library: site-saturation at positions 5, 18, 19, 20
Please give the numeric answer without any surrounding text.

Completed entries (count: 10):
| Macromolecule Sequence | shrunken log2 fold change |
| --- | --- |
| RRIRIRPPRLPRPRPRPKICPRP | -0.883 |
| RRIRMRPPRLPRPRPRPQSKPRP | 0.0671 |
| RRIRARPPRLPRPRPRPGNYPRP | 0.208 |
| RRIRARPPRLPRPRPRPWQKPRP | -0.0111 |
| RRIRHRPPRLPRPRPRPDCGPRP | -0.131 |
| RRIRKRPPRLPRPRPRPKIWPRP | 0.475 |
| RRIRERPPRLPRPRPRPLGHPRP | 0.187 |
| RRIRHRPPRLPRPRPRPGPMPRP | 0.247 |
| RRIRYRPPRLPRPRPRPSTQPRP | -0.641 |
| RRIRVRPPRLPRPRPRPGITPRP | -0.238 |

Query :: Supply reported shrunken log2 fold change belonging to this sequence: RRIRCRPPRLPRPRPRPNQVPRP
Result :: 0.017

Query :: Supply reported shrunken log2 fold change belonging to this sequence: RRIRERPPRLPRPRPRPWSAPRP
Result :: -0.00234

Query :: Supply reported shrunken log2 fold change belonging to this sequence: RRIRHRPPRLPRPRPRPNQKPRP
Result :: -0.0319

Query :: Supply reported shrunken log2 fold change belonging to this sequence: RRIRCRPPRLPRPRPRPEASPRP
Result :: 0.14

Query :: Supply reported shrunken log2 fold change belonging to this sequence: RRIRPRPPRLPRPRPRPSKPPRP
Result :: 0.0728

Query :: Supply reported shrunken log2 fold change belonging to this sequence: RRIRVRPPRLPRPRPRPYFWPRP
Result :: -0.395

Query :: Supply reported shrunken log2 fold change belonging to this sequence: RRIRGRPPRLPRPRPRPQNGPRP
Result :: 3.22

Query :: Supply reported shrunken log2 fold change belonging to this sequence: RRIRQRPPRLPRPRPRPGVSPRP
Result :: -0.0696

Query :: Supply reported shrunken log2 fold change belonging to this sequence: RRIRYRPPRLPRPRPRPSYFPRP
Result :: -0.684

Query :: Supply reported shrunken log2 fold change belonging to this sequence: RRIRERPPRLPRPRPRPGKNPRP
Result :: -0.212

Query :: Supply reported shrunken log2 fold change belonging to this sequence: RRIRARPPRLPRPRPRPCRRPRP
Result :: -0.085

Query :: Supply reported shrunken log2 fold change belonging to this sequence: RRIRSRPPRLPRPRPRPRQKPRP
Result :: 0.29

Query :: Supply reported shrunken log2 fold change belonging to this sequence: RRIRGRPPRLPRPRPRPFEGPRP
Result :: 0.0595

Query :: Supply reported shrunken log2 fold change belonging to this sequence: RRIRRRPPRLPRPRPRPDYCPRP
Result :: -0.214

Query :: Supply reported shrunken log2 fold change belonging to this sequence: RRIRDRPPRLPRPRPRPVGIPRP
Result :: -0.0542

Query :: Supply reported shrunken log2 fold change belonging to this sequence: RRIRIRPPRLPRPRPRPHWQPRP
Result :: 1.4

Query :: Supply reported shrunken log2 fold change belonging to this sequence: RRIRNRPPRLPRPRPRPKQEPRP
Result :: 0.0268

====

- Test system: Escherichia coli TOP10
- Assay Remarks: shrunken log2 fold change of peptide-encoding DNA abundance (4.5 h post-induction vs induction); higher = less antimicrobial activity (less host growth inhibition)
- Measurement Parameters: time post-induction: 4.5 h; library: site-saturation at positions 5, 18, 19, 20
As shown below, each of these sequences has a reported shrunken log2 fold change value.
Please give the numeric answer without any surrounding text.

| Macromolecule Sequence | shrunken log2 fold change |
| --- | --- |
| RRIRLRPPRLPRPRPRPGVDPRP | 0.411 |
| RRIRSRPPRLPRPRPRPRGMPRP | 0.164 |
| RRIRARPPRLPRPRPRPNIHPRP | -0.333 |

Next, consider the following sequence.
Query :: Supply reported shrunken log2 fold change belonging to this sequence: RRIRTRPPRLPRPRPRPMGNPRP
Result :: -0.0115

====

- Test system: Escherichia coli TOP10;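 also: peptides expressed intracellularly from a pBAD plasmid library in pooled LB shake-flask culture, induced with 0.3% L-arabinose, DNA abundance read by NGS, three biological replicates, DESeq2 with apeglm shrinkage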
- Assay Remarks: shrunken log2 fold change of peptide-encoding DNA abundance (4.5 h post-induction vs induction); higher = less antimicrobial activity (less host growth inhibition)
- Measurement Parameters: time post-induction: 4.5 h; library: site-saturation at positions 5, 18, 19, 20
Binary classification by shrunken log2 fold change, with -0.008 as an inclusive lower bound for yes; all other cases are no.

Query :: Check this sequence for shrunken log2 fold change at or above -0.008: RRIRERPPRLPRPRPRPWLQPRP
Result :: yes

Query :: Check this sequence for shrunken log2 fold change at or above -0.008: RRIRARPPRLPRPRPRPLICPRP
Result :: yes

Query :: Check this sequence for shrunken log2 fold change at or above -0.008: RRIRMRPPRLPRPRPRPDGEPRP
Result :: yes

Query :: Check this sequence for shrunken log2 fold change at or above -0.008: RRIRGRPPRLPRPRPRPACLPRP
Result :: yes

Query :: Check this sequence for shrunken log2 fold change at or above -0.008: RRIRCRPPRLPRPRPRPFPEPRP
Result :: no

Query :: Check this sequence for shrunken log2 fold change at or above -0.008: RRIRDRPPRLPRPRPRPNHNPRP
Result :: no

Query :: Check this sequence for shrunken log2 fold change at or above -0.008: RRIRVRPPRLPRPRPRPCCCPRP
Result :: yes

Query :: Check this sequence for shrunken log2 fold change at or above -0.008: RRIRLRPPRLPRPRPRPSSKPRP
Result :: no

Query :: Check this sequence for shrunken log2 fold change at or above -0.008: RRIRVRPPRLPRPRPRPSFMPRP
Result :: no
